pKd: −log10 of the molar value.
Endpoint summary: pKd, system: UniProtKB P29597, multiple sources combined.
quantity_measured: pKd

1) Cc1cc(Nc2nc(C(F)(F)c3ccc(F)cn3)nc3c(C(F)(F)F)cccc23)n[nH]1 ... 7.00 to 8.00
2) COCCn1ccc2c(Nc3cc(C)[nH]n3)nc(S(=O)(=O)c3ccc(F)cc3)nc21 ... ≥ 8.00
3) Cc1cc(Nc2nc(C(F)(F)c3ccc(F)cc3)nc3nc(N4CCOCC4)sc23)n[nH]1 ... ≥ 8.00
4) Fc1ccc(C(F)(F)c2nc(Nc3nc[nH]n3)c3ccccc3n2)nc1 ... 7.00 to 8.00
5) Cc1cc(Nc2nc([S+]([O-])c3ccc(F)cc3)nc3[nH]ccc23)n[nH]1 (racemic) ... ≥ 8.00
6) CCc1cc(O)c(F)cc1-c1ccc2c(-c3nc4c([nH]3)CCN(C(=O)N3CCOCC3)C4)n[nH]c2c1 ... 9.96
7) Cc1cc(Nc2nc(C(F)(F)c3ccc(F)cc3)nc3nn(C)cc23)n[nH]1 ... ≥ 8.00
8) COc1cccc2c(Nc3cc(C)[nH]n3)nc(C(F)(F)c3ccc(F)cn3)nc12 ... ≥ 8.00
9) COCCn1ccc2c(Nc3cc[nH]n3)nc(S(=O)(=O)c3ccc(F)cc3)nc21 ... ≥ 8.00
10) Cc1cc(Nc2nc(C(F)(F)c3ccc(F)cn3)nc3c(OC(F)(F)F)cccc23)n[nH]1 ... ≥ 8.00
11) Cc1cc(Nc2nc(C(F)(F)c3ccc(F)cn3)nc3c(C(N)=O)cccc23)n[nH]1 ... ≥ 8.00
12) Cc1cc(Nc2nc(C(F)(F)c3ccc(F)cn3)nc3cc(S(C)(=O)=O)ccc23)n[nH]1 ... ≥ 8.00
13) CSc1nc2nc(C(F)(F)c3ccc(F)cc3)nc(Nc3cc(C)[nH]n3)c2s1 ... ≥ 8.00
14) Cc1cc(Nc2nc(C(F)(F)c3ccc(F)cn3)nc3cc(Br)ccc23)n[nH]1 ... ≥ 8.00
15) O=S(=O)(c1ccc(F)cc1)c1nc(Nc2cc[nH]n2)c2cc[nH]c2n1 ... ≥ 8.00
16) Cc1cc(Nc2nc(C(F)(F)c3ccc(F)cn3)nc3c(S(C)(=O)=O)cccc23)n[nH]1 ... ≥ 8.00
17) Cc1cc(Nc2nc(C(F)(F)c3ncc(F)cn3)nc3ccccc23)n[nH]1 ... ≥ 8.00
18) Fc1ccc(C(F)(F)c2nc(Nc3cc[nH]n3)c3ccccc3n2)nc1 ... ≥ 8.00
19) Cc1cc(Nc2nc(C(F)(F)c3ccc(F)cc3)nc3[nH]ncc23)n[nH]1 ... ≥ 8.00
20) Cc1cc(Nc2nc(C(O)c3ccc(F)cc3)nc3nn(C)cc23)n[nH]1 (racemic) ... ≥ 8.00
21) Cc1ccc2c(Nc3cc(C)[nH]n3)nc(C(F)(F)c3ccc(F)cn3)nc2c1 ... ≥ 8.00
22) CCn1ncc2c(Nc3cc(C)[nH]n3)nc(Sc3ccc(F)cc3)nc21 ... 7.00 to 8.00
23) Cc1cc(Nc2nc(C(F)(F)c3ccc(F)cc3)nc3c2cnn3CCN2CCOCC2)n[nH]1 ... ≥ 8.00
24) Cc1cc(Nc2nc(C(F)(F)c3ccc(F)cn3)nc3nn(C4CCCC4)cc23)n[nH]1 ... ≥ 8.00
